Reference source for all entries: patent US11370776B2

Catalogue of pIC50 values
- TARGET: NLRP3 (Homo sapiens, UniProt Q96P20)
- Sequence (Q96P20 whole entry): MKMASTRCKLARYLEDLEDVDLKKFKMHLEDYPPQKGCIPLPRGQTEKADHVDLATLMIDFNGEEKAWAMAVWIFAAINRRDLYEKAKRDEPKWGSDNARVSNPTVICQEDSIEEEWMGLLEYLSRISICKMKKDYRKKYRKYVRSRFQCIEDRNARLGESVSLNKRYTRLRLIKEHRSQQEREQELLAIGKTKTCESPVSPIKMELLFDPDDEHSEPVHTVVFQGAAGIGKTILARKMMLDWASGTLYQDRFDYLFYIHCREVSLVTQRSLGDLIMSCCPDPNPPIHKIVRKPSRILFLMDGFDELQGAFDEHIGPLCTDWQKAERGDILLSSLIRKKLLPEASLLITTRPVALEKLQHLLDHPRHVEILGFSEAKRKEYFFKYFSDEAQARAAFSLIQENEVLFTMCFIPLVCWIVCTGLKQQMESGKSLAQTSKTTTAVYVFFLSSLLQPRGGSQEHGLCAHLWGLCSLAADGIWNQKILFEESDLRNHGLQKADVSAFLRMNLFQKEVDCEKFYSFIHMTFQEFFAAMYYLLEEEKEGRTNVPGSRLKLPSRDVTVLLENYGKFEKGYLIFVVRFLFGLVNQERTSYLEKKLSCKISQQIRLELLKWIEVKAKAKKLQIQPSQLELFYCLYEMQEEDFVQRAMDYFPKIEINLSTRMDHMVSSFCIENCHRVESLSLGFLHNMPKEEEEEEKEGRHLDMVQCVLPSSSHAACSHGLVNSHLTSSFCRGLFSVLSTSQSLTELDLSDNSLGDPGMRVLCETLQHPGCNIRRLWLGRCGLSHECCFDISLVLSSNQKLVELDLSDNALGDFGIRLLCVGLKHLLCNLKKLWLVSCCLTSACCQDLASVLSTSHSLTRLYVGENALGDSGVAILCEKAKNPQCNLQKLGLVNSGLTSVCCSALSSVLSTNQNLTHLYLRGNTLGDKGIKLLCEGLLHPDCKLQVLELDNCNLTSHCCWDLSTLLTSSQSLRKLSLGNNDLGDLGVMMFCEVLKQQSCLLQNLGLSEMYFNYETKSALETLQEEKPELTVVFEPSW
- METHOD: Human whole blood IL1β release assay
- Assay type: cell-based
- Parameters: Human whole blood in Li-heparin tubes was obtained from healthy donors; from tissue; host or cells: human whole blood from healthy donors, LPS-primed, nigericin-stimulated
- EXPERIMENTAL_PARAMETERS: human whole blood, 1 μg/ml LPS, nigericin 10 μM, IL-1β release; read-out: HWB IC50
pIC50: −log10 of the molar value. Structures can show the parent of a compound that is named as a salt.

Past entries and their recorded results:
COMPOUND	pIC50
Nc1ncc(S(=O)(=O)NC(=O)Nc2c3c(cc4c2CCC4)CCC3)cn1 [Example 9, Potassium Salt]	> 5.60
Cc1cc(C)nc(S(=O)(=O)NC(=O)Nc2c(-c3ccncc3)cc(F)c3c2CCC3)n1 [Example 49]	> 5.60
CN(C)c1cnnc(S(=O)(=O)NC(=O)Nc2c(-c3ccncc3)cc(F)c3c2CCC3)c1 [Example 53]	> 5.60

Summary for this compound, CC(C)c1cccc(C(C)C)c1NC(=O)NS(=O)(=O)c1cccnn1 [Example 7, Sodium Salt] : pIC50 is > 5.60

Summary for this compound, Cc1cc(C)nc(S(=O)(=O)NC(=O)Nc2c3c(cc4c2CCC4)CCC3)n1 [Example 18, Potassium Salt] : pIC50 is > 5.60

Summary for this compound, Cc1ccnc(S(=O)(=O)NC(=O)Nc2c3c(cc4c2CCC4)CCC3)n1 [Example 17, Potassium Salt] : pIC50 is > 5.30

Summary for this compound, CC(C)c1cc(F)cc(-c2ccnc(C#N)c2)c1NC(=O)NS(=O)(=O)c1cnc(N(C)C)cn1 [Example 38] : pIC50 is > 5.60

Summary for this compound, O=C(Nc1c2c(cc3c1CCC3)CCC2)NS(=O)(=O)c1cncnc1 [Example 10, Potassium Salt] : pIC50 is > 5.12

Summary for this compound, COc1cc(-c2ccc3c(c2NC(=O)NS(=O)(=O)c2cnc(N(C)C)cn2)CCC3)ccn1 [Example 40] : pIC50 is > 5.60
